Reported ELISA reading values for a set of binders
# system: T1, soluble KDR Ig4-7 domain (human, UniProt P35968 328-764)
# T1 construct: domain: Ig4-7 domain; also called b-KDRIg4-7-myc-his; Ig4-7 domain of KDR; not shown: myc-his tag of the pSecTag construct
# T1 sequence (P35968 328-764): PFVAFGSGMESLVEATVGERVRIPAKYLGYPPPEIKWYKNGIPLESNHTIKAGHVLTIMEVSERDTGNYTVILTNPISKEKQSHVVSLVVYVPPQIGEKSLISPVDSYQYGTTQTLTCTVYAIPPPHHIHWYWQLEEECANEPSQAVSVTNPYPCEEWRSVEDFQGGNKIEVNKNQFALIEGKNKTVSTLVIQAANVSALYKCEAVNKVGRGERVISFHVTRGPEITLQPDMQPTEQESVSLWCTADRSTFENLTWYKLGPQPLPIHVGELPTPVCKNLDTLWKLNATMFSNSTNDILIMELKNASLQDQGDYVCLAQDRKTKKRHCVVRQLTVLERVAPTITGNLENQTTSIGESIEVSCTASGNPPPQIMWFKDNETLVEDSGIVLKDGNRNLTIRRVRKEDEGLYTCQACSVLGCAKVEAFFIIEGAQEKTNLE
# test.description: ELISA, KDR Ig4-7 coat (1:1 diln.), antibody 0.01 ug/mL
observed.property: ELISA reading

29H3 (antibody, V domains shown, Fully human monoclonal antibody from a XenoMouse hybridoma (IgG2 or IgG4 strain), purified) VH: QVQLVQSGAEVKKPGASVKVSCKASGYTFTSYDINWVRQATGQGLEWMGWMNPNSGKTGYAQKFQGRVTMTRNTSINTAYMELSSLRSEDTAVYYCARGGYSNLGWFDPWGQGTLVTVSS VL: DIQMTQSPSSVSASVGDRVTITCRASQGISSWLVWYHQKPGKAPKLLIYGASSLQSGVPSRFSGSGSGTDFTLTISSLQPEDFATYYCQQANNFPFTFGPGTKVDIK = 1.14
21H6 (antibody, V domains shown, Fully human monoclonal antibody from a XenoMouse hybridoma, purified) VH: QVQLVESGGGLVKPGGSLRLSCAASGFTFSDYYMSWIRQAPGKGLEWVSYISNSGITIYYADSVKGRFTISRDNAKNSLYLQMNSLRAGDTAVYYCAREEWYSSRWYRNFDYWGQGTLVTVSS VL: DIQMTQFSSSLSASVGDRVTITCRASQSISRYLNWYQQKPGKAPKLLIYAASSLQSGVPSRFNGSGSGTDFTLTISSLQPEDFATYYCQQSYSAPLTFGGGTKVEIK = 0.074
31E11 (antibody, V domains shown, Fully human monoclonal antibody from a XenoMouse hybridoma (IgG2 or IgG4 strain), purified) VH: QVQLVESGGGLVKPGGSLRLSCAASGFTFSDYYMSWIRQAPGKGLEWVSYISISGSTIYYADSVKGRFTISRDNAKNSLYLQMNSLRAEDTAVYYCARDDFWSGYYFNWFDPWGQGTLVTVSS VL: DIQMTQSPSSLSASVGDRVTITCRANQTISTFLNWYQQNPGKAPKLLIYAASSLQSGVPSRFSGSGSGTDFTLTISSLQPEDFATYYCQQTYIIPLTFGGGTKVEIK = 0.072
33E1 (antibody, V domains shown, Fully human monoclonal antibody from a XenoMouse hybridoma (IgG2 or IgG4 strain), purified) VH: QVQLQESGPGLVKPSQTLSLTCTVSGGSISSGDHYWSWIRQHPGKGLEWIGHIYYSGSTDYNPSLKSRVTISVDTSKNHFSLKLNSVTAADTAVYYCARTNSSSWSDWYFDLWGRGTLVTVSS VL: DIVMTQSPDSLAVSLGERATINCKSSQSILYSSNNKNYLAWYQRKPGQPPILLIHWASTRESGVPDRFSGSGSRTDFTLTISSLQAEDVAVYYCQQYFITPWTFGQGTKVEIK = 0.067
